Where do the numbers come from? From patent US9708336B2.

target: IMP-1 (Serratia marcescens, UniProt P52699); assay: biochemical; type: biochemical; conditions: IMP-1 enzyme, CCF2-FA fluorescence assay; read-out: IMP-1 IC50
Sequence (P52699 whole entry, looked up): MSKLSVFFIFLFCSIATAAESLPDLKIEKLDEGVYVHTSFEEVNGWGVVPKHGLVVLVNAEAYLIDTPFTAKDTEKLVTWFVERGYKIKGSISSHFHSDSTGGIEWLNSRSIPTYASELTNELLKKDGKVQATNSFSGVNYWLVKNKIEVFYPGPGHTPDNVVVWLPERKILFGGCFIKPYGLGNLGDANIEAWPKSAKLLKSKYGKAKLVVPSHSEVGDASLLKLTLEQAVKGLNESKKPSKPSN
pIC50: −log10 of the molar value.
Catalogue of pIC50 values
metric: pIC50

                                   compound  recorded_result
0  NC(=O)CNCc1ccc(-c2cccc(S(N)(=O)=O)c2-c2nnn[nH]2)cc1             7.04
1  NS(=O)(=O)c1cccc(-c2ccc3nc(C(=O)O)ccc3c2)c1-c1nn[nH]n1             6.80
2  NS(=O)(=O)c1cccc(-c2cnc3ccccn23)c1-c1nnn[nH]1             7.15
3  Nc1cccn2c(-c3cccc(S(N)(=O)=O)c3-c3nnn[nH]3)cnc12             6.93
4  N#CCCc1ccc(-c2ccnc3ccccc23)c(-c2nn[nH]n2)c1S(N)(=O)=O             6.96
5  NS(=O)(=O)c1cccc(-c2ccc(C(O)CO)cc2)c1-c1nn[nH]n1 (stereo not drawn)             7.03
6  NS(=O)(=O)c1cccc(-c2ccc(OC3CCNCC3)cc2)c1-c1nnn[nH]1             7.16
7  CNCC(C)NCc1ccc(-c2cccc(S(N)(=O)=O)c2-c2nn[nH]n2)cc1 (stereo not drawn)             6.98
8  NS(=O)(=O)c1cccc(-c2cc3cnccc3s2)c1-c1nnn[nH]1             6.99
